- System: LCLC-103H
- procedure.text: relative viability (nuclei count vs DMSO), 5 days (fraction); higher = more cells survive
- cond: first compound 0.006325 µM
The following compounds are shown together with reported relative viability values.
Just the number, please.

The examples below pair each entry with its known result.
compound	relative viability
CCNC(=O)c1noc(-c2cc(C(C)C)c(O)cc2O)c1-c1ccc(CN2CCOCC2)cc1 [Luminespib] + Cc1nc(NC(=O)N2CCC[C@H]2C(N)=O)sc1-c1ccnc(C(C)(C)C(F)(F)F)c1 [Alpelisib] (partner 2 µM)	1.01
CCNC(=O)c1noc(-c2cc(C(C)C)c(O)cc2O)c1-c1ccc(CN2CCOCC2)cc1 [Luminespib] + Nc1ncn([C@H]2C[C@H](O)[C@@H](CO)O2)c(=O)n1 [Decitabine] (partner 2 µM)	0.702
CCNC(=O)c1noc(-c2cc(C(C)C)c(O)cc2O)c1-c1ccc(CN2CCOCC2)cc1 [Luminespib] + CC(C)C[C@H](NC(=O)[C@H](Cc1ccccc1)NC(=O)c1cnccn1)B(O)O [Bortezomib] (partner 0.002 µM)	1.01
CCNC(=O)c1noc(-c2cc(C(C)C)c(O)cc2O)c1-c1ccc(CN2CCOCC2)cc1 [Luminespib] + C[C@]1(O)C[C@@H](c2nc(-c3ccc4ccc(-c5ccccc5)nc4c3)c3c(N)nccn32)C1 [Linsitinib] (partner 1 µM)	0.971

Please examine the following record next.
For the compound CCNC(=O)c1noc(-c2cc(C(C)C)c(O)cc2O)c1-c1ccc(CN2CCOCC2)cc1 [Luminespib] + O=C(CCCCCCC(=O)Nc1ccccc1)NO [Vorinostat] (partner 1 µM) , give its reported relative viability.
0.718
